# credit: paper PMC12040169

Assay procedure: in vitro
Setup conditions: human, hela cells, % viability
Field: viability at 28.5 h, 10 µM. Provide a value for each of the compounds that follow.
One number for each entry, in %.

{"Compound": "CC(=O)N1CCc2cc(C(O)CN3CCCC4CCCCC43)ccc21 (stereo not drawn) [CBK282924]", "Measured attribute": "viability at 28.5 h, 10 µM", "Measurement": 93.6}

Parameters: items (list). Returns: viability at 28.5 h, 10 µM for each item.
1. Nc1ccc2nc(-c3ccccn3)[nH]c2c1 [CBK017167]
2. CCCn1c(SCC(=O)Nc2scc(-c3cccs3)c2C(=O)OCC)n[nH]c1=O [CBK296967]
3. COc1ccc(/C=C(\C)C(=O)NCc2ccccc2OC2CCNC2)cc1OC (stereo not drawn) [CBK034157T]
4. O=C(O)CCCC(=O)Nc1cccc([N+](=O)[O-])c1 [CBK261530]

Response:
[100, 94.5, 90, 101]

Would you mind giving viability at 28.5 h, 10 µM for every compound in the list below?
1. O=S(=O)(Nc1ccc(N2CCCCC2)cc1)c1cccc2cccnc12 [CBK263077]
2. COCCC1CN(c2nc(N(C)C)nc3c2CCN(C(C)=O)C3)CCO1 (stereo not drawn) [CBK307464]
3. COc1cc(/C=C2\N=C(c3cc(Cl)ccc3OC)OC2=O)ccc1OC(=O)c1ccccc1 [CBK265069]
4. CC(Cc1nc(-c2cnnn2C)cs1)n1cc(Cl)cn1 (stereo not drawn) [CBK304245]

Response:
93.1
82.2
104
99.6

----------
Assay procedure: in vitro
Setup conditions: human, hela cells, % viability
I'd be grateful if you could share measured viability at 28.5 h, 10 µM for these entries.
Respond with the figure and its unit, in that order.

Solved cases below.
{"Molecule": "CCCC/C=C/c1cn2ccnc2c(Nc2ccc(OC)nc2)n1", "Measured attribute": "viability at 28.5 h, 10 µM", "Measurement": "100%"}
{"Molecule": "CNC(=O)C1(Cc2ccccc2-c2cccs2)CCN(C(=O)c2ccccc2OC)CC1", "Measured attribute": "viability at 28.5 h, 10 µM", "Measurement": "107%"}
{"Molecule": "COc1ccc(C)cc1OCCO", "Measured attribute": "viability at 28.5 h, 10 µM", "Measurement": "104%"}

I'm hoping you can list viability at 28.5 h, 10 µM for every molecule here, please.
1. CC(=O)N1CCN([C@H]2[C@@H]3OC[C@@H](O3)[C@@H](NC(=O)NC3CCCCC3)[C@@H]2O)CC1
2. Nc1ncc(-c2cccc(OC(F)(F)F)c2)nc1N1CCN(CCO)CC1

Response:
["101%", "94.9%"]

The following molecules each have a reported value; give each one's viability at 28.5 h, 10 µM.
1. O=C1N=C(NC2CCCCCC2)SC1CCNC(=O)N1CCOCC1 (centres unmarked)
2. O=C(OCc1nc2cc3ccccc3cc2[nH]1)C1CCCCC1

Response:
1: 110%; 2: 94%

Provide each entry's viability at 28.5 h, 10 µM from the list below.
1. CCCc1[nH]nc(O)c1C(=O)c1c(F)cccc1Cl
2. c1ccc2oc(-c3cncc(NCCc4c[nH]c5ccccc45)n3)cc2c1

Response:
["103%", "93.1%"]

Hey, quick one: what's viability at 28.5 h, 10 µM for each of these?
1. CS(=O)(=O)N(CC(=O)Nc1ccccc1F)c1ccc(I)cc1
2. CCOC(=O)c1csc(C2CCCN2C(=O)CC2C=CCCC2)n1 (centres unmarked)
3. Cn1cc(C(NC(=O)c2cn3ccsc3n2)C2CC(O)C2)cn1 (centres unmarked)
4. COc1cccc(CC2(C#N)CC2)c1

Response:
["97.4%", "97.8%", "110%", "87.5%"]

----------
Assay procedure: in vitro
Setup conditions: human, hela cells, % viability
Measured attribute: viability at 28.5 h, 10 µM

Please review the following examples before continuing.
{"Compound": "O=C(O)c1cc(NC(=O)C2CCCCC2)cc(C(=O)O)c1", "Measured attribute": "viability at 28.5 h, 10 µM", "Measurement": "103%"}
{"Compound": "O=C1c2ccccc2C(=O)N1CCN1CCN(Cc2ccccc2)CC1", "Measured attribute": "viability at 28.5 h, 10 µM", "Measurement": "110%"}
{"Compound": "O=C(NCC1(c2ccccc2)CCCC1)c1ccc(NC(=O)C2COc3ccccc3O2)cc1 (stereo not shown)", "Measured attribute": "viability at 28.5 h, 10 µM", "Measurement": "97.9%"}
{"Compound": "O=S(=O)(Cc1ccc(Cl)cc1)NCCCn1ccnc1", "Measured attribute": "viability at 28.5 h, 10 µM", "Measurement": "106%"}
{"Compound": "O=[N+]([O-])c1ccccc1S(=O)(=O)NCc1ccccn1", "Measured attribute": "viability at 28.5 h, 10 µM", "Measurement": "92.6%"}
{"Compound": "O=C(Cc1cccs1)NCCc1c[nH]cn1", "Measured attribute": "viability at 28.5 h, 10 µM", "Measurement": "93.2%"}

Would you mind listing viability at 28.5 h, 10 µM for each of the following compounds?
1. COc1ccc(CN2CCC3(CCc4ccccc4C(=O)N3)C2)cc1 (stereo not shown)
2. CNC(=O)C1(Cc2ccc(-c3ccccc3)cc2)CCN(C(=O)COc2ccccc2)CC1
3. Cc1ccc2nc(CNC(=O)CN(C)C3CCNCC3)cn2c1
4. NC(=O)c1cnn(-c2cc(Oc3ccccc3)ncn2)c1N

Response:
1. 97.6%
2. 92.7%
3. 96.6%
4. 105%

----------
So I've got a bunch of compounds here, and I need their viability at 28.5 h, 1 µM values.
Assay procedure: in vitro
Design: Viability of infected HeLa host cells, resazurin conversion, bulk resorufin fluorescence relative to DMSO
Setup conditions: human, hela cells; bulk resorufin, mean of 2
Answers are plain numbers, in %.

Some compounds with recorded viability at 28.5 h, 1 µM:
{"Compound": "O=C(NS(=O)(=O)c1cccc(-c2nnco2)c1)C1CC1C1CCCCC1 (stereo not drawn)", "Measured attribute": "viability at 28.5 h, 1 µM", "Quantity unit": "%", "Measurement": 91}
{"Compound": "CCOc1cc(/C=N/Nc2nnc(C)n2N)ccc1O", "Measured attribute": "viability at 28.5 h, 1 µM", "Quantity unit": "%", "Measurement": 93.3}
{"Compound": "Cc1cc(C)c2c(N)c(C(=O)Nc3ccc(Br)cc3)sc2n1", "Measured attribute": "viability at 28.5 h, 1 µM", "Quantity unit": "%", "Measurement": 97.9}
{"Compound": "Cc1ccc2nsnc2c1S(=O)(=O)Nc1cccc2cccnc12", "Measured attribute": "viability at 28.5 h, 1 µM", "Quantity unit": "%", "Measurement": 76.3}
{"Compound": "CN1CCCN(c2cc(C(F)(F)F)c3scc(C(=O)NCc4cccc(F)c4F)c3n2)CC1 [CBK036386T]", "Measured attribute": "viability at 28.5 h, 1 µM", "Quantity unit": "%", "Measurement": 99}

Could you report viability at 28.5 h, 1 µM for every entry in the following list?
1. Cc1cc(Br)ccc1C(=O)NCCc1c[nH]c2ccc(Cl)cc12
2. CC1CC(C)CN(Cc2csc(NC(=O)Cc3ccc(Cl)cc3)n2)C1 (stereo not drawn)
3. O=[N+]([O-])c1cc([N+](=O)[O-])c2cccnc2c1NNc1nncc2ccccc12
4. CC(=O)NC[C@H]1CN(c2ccc3c(c2)CCN(C(C)=O)CC3)C(=O)O1
5. O=C(OCCC1SC(NC2CC3C=CC2C3)=NC1=O)c1ccc(Cl)c([N+](=O)[O-])c1 (stereo not drawn) [CBK200060T]

Response:
1. 109
2. 87.7
3. 93
4. 91.8
5. 92.3

Here are 6 compounds. What values of viability at 28.5 h, 1 µM were reported for them?
1. Nc1ncc(-c2ccc(C(=O)N3CCOCC3)cc2)cc1C(=O)NCc1ccc(Cl)c(Cl)c1
2. COc1nccnc1NS(=O)(=O)c1ccc(Nc2c([N+](=O)[O-])cc([N+](=O)[O-])c3nonc23)cc1
3. Cc1cc(NS(=O)(=O)c2ccc(Nc3nc(-c4cccs4)cs3)cc2)no1
4. COc1ccc(N2CCN(C(=O)c3ccc([N+](=O)[O-])o3)CC2)cc1
5. OCCn1ncc2c(NCc3cccc(Cn4ccnc4)c3)ncnc21
6. Cc1cc(NS(=O)(=O)c2ccc(Nc3nc(-c4ccccn4)cs3)cc2)no1 [CBK263302B]

Response:
1. 91.9
2. 90.8
3. 86.5
4. 106
5. 96.1
6. 90.8

Would you mind listing viability at 28.5 h, 1 µM for each of the following compounds?
1. Cc1c(OCc2cnn(-c3ccccc3)c2)ccc(-c2n[nH]c(C(F)(F)F)c2-c2ccccc2)c1O
2. CC(C)(C)c1ccc(N(C2CCNCC2)S(=O)(=O)c2cccc(C(F)(F)F)c2)cc1 [CBK165056T]

Response:
[109, 99.8]
